- TESTED_TARGET: N-terminally GST-tagged mTOR (Homo sapiens, UniProt P42345)
- Construct: truncated version: amino acids 1360-2549; purchased Life Technologies PR8683B
- Sequence (P42345 1360-2549): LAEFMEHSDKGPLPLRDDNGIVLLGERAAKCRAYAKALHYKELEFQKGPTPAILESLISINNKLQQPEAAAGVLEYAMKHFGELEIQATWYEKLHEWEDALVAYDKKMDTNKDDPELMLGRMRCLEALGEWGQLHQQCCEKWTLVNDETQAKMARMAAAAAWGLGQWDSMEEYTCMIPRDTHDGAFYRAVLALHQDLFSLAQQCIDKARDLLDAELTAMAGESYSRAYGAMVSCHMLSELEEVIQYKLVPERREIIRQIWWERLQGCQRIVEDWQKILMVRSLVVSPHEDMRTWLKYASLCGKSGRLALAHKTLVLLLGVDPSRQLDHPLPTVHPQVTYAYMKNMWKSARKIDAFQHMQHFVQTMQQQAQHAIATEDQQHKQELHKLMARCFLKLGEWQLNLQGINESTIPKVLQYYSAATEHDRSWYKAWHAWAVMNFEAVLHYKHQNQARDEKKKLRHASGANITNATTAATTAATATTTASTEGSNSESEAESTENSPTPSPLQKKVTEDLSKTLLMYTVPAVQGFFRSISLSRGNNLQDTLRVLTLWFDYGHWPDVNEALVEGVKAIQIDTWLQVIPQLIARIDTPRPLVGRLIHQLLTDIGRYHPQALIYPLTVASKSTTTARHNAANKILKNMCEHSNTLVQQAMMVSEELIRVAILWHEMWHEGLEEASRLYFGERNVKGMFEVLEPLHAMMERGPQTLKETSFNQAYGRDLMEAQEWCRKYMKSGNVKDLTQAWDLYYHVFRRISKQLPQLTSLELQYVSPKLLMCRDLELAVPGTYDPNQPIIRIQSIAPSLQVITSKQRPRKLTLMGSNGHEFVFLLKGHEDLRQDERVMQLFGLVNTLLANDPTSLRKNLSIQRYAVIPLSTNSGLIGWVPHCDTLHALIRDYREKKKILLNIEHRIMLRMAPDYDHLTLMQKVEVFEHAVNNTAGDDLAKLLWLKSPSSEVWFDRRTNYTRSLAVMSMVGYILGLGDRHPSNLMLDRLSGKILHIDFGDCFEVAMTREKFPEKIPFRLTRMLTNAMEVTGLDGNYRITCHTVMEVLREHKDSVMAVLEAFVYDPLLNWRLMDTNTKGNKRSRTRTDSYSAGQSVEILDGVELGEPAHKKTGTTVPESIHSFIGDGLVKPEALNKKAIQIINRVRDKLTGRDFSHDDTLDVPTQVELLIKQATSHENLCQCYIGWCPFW
- ASSAY: In vitro mTOR binding assay (LanthaScreen TR-FRET)
- PROTOCOL_CONDITIONS: LanthaScreen kinase binding, Tracer 314; read-out: mTOR IC50 (binding)
ENDPOINT: pIC50
Answers are plain numbers, as −log10 of the molar value.

Find the measured pIC50 of `C[C@H]1COCCN1c1nc(-c2cnc(N)nc2C(F)F)cc(N2CCOCC2)n1` and report it.
6.53

Quickly give me recorded pIC50 for `CC1(C)COCCN1c1nc(-c2cnc(N)cc2C(F)F)nc(N2CCOCC2(C)C)n1`
9.00

Determine from records and report pIC50 for `Nc1cc(C(F)F)c(-c2nc(N3CCOCC3)cc(N3CCOCC3)n2)cn1`
7.51

Quick one: give measured pIC50 for `C[C@@H]1COCCN1c1nc(-c2cnc(N)cc2C(F)F)nc(N2CCOCC23CCC3)n1`
7.74

Hello, please tell me recorded pIC50 for this one: `Nc1cc(C(F)F)c(-c2cc(N3CCOCC3)nc(N3C4CCC3COC4)n2)cn1`
7.40

Provide measured pIC50 value, entry: `C[C@H]1COCCN1c1nc(-c2cnc(N)nc2C(F)F)nc(N2CCOCC2)n1`
7.62

Fill in pIC50 for record `C[C@@H]1COC[C@H](C)N1c1nc(-c2cnc(N)cc2C(F)F)nc(N2[C@H](C)COC[C@@H]2C)n1`
8.30

Now take the following compound into account.
Output pIC50 of `C[C@H]1COCCN1c1cc(-c2cnc(N)cc2C(F)F)nc(N2CCOCC2)n1`
7.19

###

For each record, write down the corresponding pIC50.
- System: pS6 S235/S236 in A2058 cells
- ASSAY: In-cell Western blot, pS6 S235/S236
- Type: cell-based
- PROTOCOL_CONDITIONS: Homo sapiens, A2058, 1 h, 1 hour treatment
Answers are plain numbers, as −log10 of the molar value.

Answered examples (6):
Hello, please tell me recorded pIC50 for this one: `C[C@@H]1COCCN1c1nc(-c2cnc(N)cc2C(F)F)nc(N2[C@@H](C)COC[C@@H]2C)n1`
6.87

Indicate the recorded pIC50 value for this molecule: Nc1ncc(-c2cc(N3CCOCC3)nc(N3CCOCC3)n2)c(C(F)(F)F)n1 [reference compound]
6.42

Report pIC50 for `CC1(C)COCCN1c1nc(-c2cnc(N)cc2C(F)F)nc(N2CCOCC2(C)C)n1`
7.33

Provide measured pIC50 value, entry: `Nc1cc(C(F)F)c(-c2cc(N3CCOCC3)nc(N3C4CCC3COC4)n2)cn1`
6.64

Tell me measured pIC50 for `Nc1cc(C(F)F)c(-c2nc(N3CCOCC3)nc(N3CCSCC3)n2)cn1` please.
6.60

Give the reported value of pIC50 for this record: Nc1ncc(-c2cc(N3CCOCC3)nc(N3C4CCC3COC4)n2)c(C(F)(F)F)n1 [reference compound]
6.13

Kindly give each listed record's pIC50.
1. CC1(C)COCCN1c1nc(-c2cnc(N)cc2C(F)F)nc(N2CCOCC2)n1
2. C[C@H]1COCCN1c1nc(-c2cnc(N)cc2C(F)F)nc(N2CCNCC2)n1
3. C[C@H]1COCCN1c1cc(-c2cnc(N)cc2C(F)(F)F)nc(N2CCOCC2)n1 [reference compound]
4. C[C@@H]1COCCN1c1nc(-c2cnc(N)cc2C(F)F)nc(N2C[C@@H]3C[C@H]2CO3)n1
5. C[C@H]1COCCN1c1cc(-c2cnc(N)nc2C(F)(F)F)nc(N2CCOC[C@@H]2C)n1 [reference compound]

1. 7.35
2. 6.05
3. 5.96
4. 6.21
5. 6.21

Parameter requested: pIC50. Apply to each item below.
1. C[C@@H]1COCCN1c1nc(-c2cnc(N)cc2C(F)F)nc(N2CC3CC(C2)O3)n1
2. CC1(C)COCCN1c1nc(-c2cnc(N)cc2C(F)F)nc(N2C3COCC2COC3)n1
3. C[C@H]1COCCN1c1nc(-c2cnc(N)nc2C(F)F)nc(N2C3CCC2COC3)n1

[6.45, 6.85, 7.02]

Quick batch: pIC50 for everything below.
1. Nc1cc(C(F)F)c(-c2nc(N3C4CCCC3COC4)nc(N3C4COCC3COC4)n2)cn1
2. CC1(C)COCCN1c1nc(-c2cnc(N)cc2C(F)F)nc(N2CCOC[C@H]2CO)n1
3. Nc1cc(C(F)(F)F)c(-c2cc(N3CCOCC3)nc(N3CCOCC3)n2)cn1 [reference compound]
4. COC[C@@H]1COCCN1c1nc(-c2cnc(N)cc2C(F)F)nc(N2CCOC[C@H]2C)n1
5. Nc1cc(C(F)F)c(-c2cc(N3C4CCC3COC4)nc(N3C4CCC3COC4)n2)cn1
6. C[C@@H]1COCCN1c1nc(-c2cnc(N)cc2C(F)F)nc(N2C3COCC2C3)n1
7. Nc1cc(C(F)F)c(-c2nc(N3CCOCC3)nc(N3C4COCC3COC4)n2)cn1

[6.77, 6.38, 6.56, 6.37, 6.67, 6.39, 6.84]

Your task in this section: give pIC50 for each listed record.
1. C[C@H]1COCCN1c1nc(-c2cnc(N)nc2C(F)F)nc(N2CCNCC2)n1
2. Nc1ncc(-c2nc(N3CCOCC3)nc(N3C4CCC3COC4)n2)c(C(F)F)n1

6.54
6.87

###

- TESTED_TARGET: N-terminally GST-tagged mTOR (Homo sapiens, UniProt P42345)
- Construct: truncated version: amino acids 1360-2549; purchased Life Technologies PR8683B
- ASSAY: In vitro mTOR binding assay (LanthaScreen TR-FRET)
- PROTOCOL_CONDITIONS: LanthaScreen kinase binding, Tracer 314; read-out: mTOR IC50 (binding)
Assign IC50 to each entry below.
Give bare numbers, in nM.

Some entries whose results are on file:
Look up and report IC50, with N-terminally GST-tagged mTOR (Homo sapiens, UniProt P42345) as system, for C[C@@H]1COCCN1c1nc(-c2cnc(N)cc2C(F)F)nc(N2[C@H](C)COC[C@@H]2C)n1 [Compound 44]
5

Lab note: record IC50 of C[C@@H]1COC[C@H](C)N1c1nc(-c2cnc(N)cc2C(F)F)nc(N2CCOCC2(C)C)n1 [Compound 66] tested on N-terminally GST-tagged mTOR (Homo sapiens, UniProt P42345).
4

Supply IC50 measured with N-terminally GST-tagged mTOR (Homo sapiens, UniProt P42345) for C[C@H]1COCCN1c1nc(-c2cnc(N)cc2C(F)(F)F)cc(N2CCOCC2)n1 [reference compound] .
28

Others:
Recall the reported IC50 of C[C@@H]1COCCN1c1nc(-c2cnc(N)cc2C(F)F)nc(N2CCOCC2(C)C)n1 [Compound 45] on N-terminally GST-tagged mTOR (Homo sapiens, UniProt P42345) and write it down.
7

###

- TESTED_TARGET: N-terminally GST-tagged mTOR (Homo sapiens)
- Construct: truncated version: amino acids 1360-2549; purchased Life Technologies PR8683B
- ASSAY: In vitro mTOR binding assay (LanthaScreen TR-FRET)
ENDPOINT: IC50 (nM)
Answers are plain numbers, in nM.

Report IC50, nothing else, for this compound: Nc1cc(C(F)F)c(-c2nc(N3C4COCC3COC4)nc(N3C4COCC3COC4)n2)cn1 [Compound 37]
49
